B1: MXI1 peptide 4-19 (Max-interacting protein 1), 16-mer library wild type / SIN3A PAH2 (SIN3A PAH domain, residues 295-383) (parent)
chain 1: VKMINVQRLLEAAEFL
chain 2: SLQNNQPVEFNHAINYVNKIKNRFQGQPDIYKAFLEILHTYQKEQRNAKEAGGNYTPALTEQEVYAQVARLFKNQEDLLSEFGQFLPDA

# Variants of: B1
# measurement-notes: proteomic peptide phage display deep mutational scan (ProP-PD DMS): M13 P8 16-mer library selected against immobilised GST-tagged bait for four days (rounds), NGS of the eluted pools per day and pseudo-replica
# measurement-setup: with SIN3A PAH2 (SIN3A PAH domain, residues 295-383); bait immobilised on MaxiSorp plates (10 µg), library pre-cleared on GST, 2 h binding at 4 °C, five washes; one round per day, days 1-4; value from days 2 and 3; keep out of graded; scale: average fractional NGS count over selection days 2 and 3
Can you tell me screen value for the items I'm about to list?
Response field accepts a number only; no unit should be typed.

Task item: Any idea what screen value was measured for chain 1 R8N ?
Reply: 0.000431

Task item: Any idea what screen value was measured for chain 1 F15W ?
Reply: 0.000134

Task item: Any idea what screen value was measured for chain 1 M3G ?
Reply: 9.82e-05

Task item: Any idea what screen value was measured for chain 1 R8M ?
Reply: 9.12e-05

Task item: Any idea what screen value was measured for chain 1 L16E ?
Reply: 7.18e-05

Task item: Any idea what screen value was measured for chain 1 L16S ?
Reply: 9.12e-05

Task item: Any idea what screen value was measured for chain 1 K2Q ?
Reply: 0.00731

Task item: Any idea what screen value was measured for chain 1 L16R ?
Reply: 0.000122

Task item: Any idea what screen value was measured for chain 1 K2R ?
Reply: 0.000162

Task item: Any idea what screen value was measured for chain 1 R8L ?
Reply: 5.66e-05

Task item: Any idea what screen value was measured for chain 1 L16K ?
Reply: 7.16e-05

Task item: Any idea what screen value was measured for chain 1 Q7G ?
Reply: 0

Task item: Any idea what screen value was measured for chain 1 M3A ?
Reply: 6.73e-05

Task item: Any idea what screen value was measured for chain 1 M3V ?
Reply: 0.000204

Task item: Any idea what screen value was measured for chain 1 F15H ?
Reply: 2.84e-05

Task item: Any idea what screen value was measured for chain 1 N5M ?
Reply: 0.0011

Task item: Any idea what screen value was measured for chain 1 L9T ?
Reply: 0

Task item: Any idea what screen value was measured for chain 1 R8E ?
Reply: 0

Task item: Any idea what screen value was measured for chain 1 K2G ?
Reply: 0.00453

Task item: Any idea what screen value was measured for chain 1 K2L ?
Reply: 0.00133

Task item: Any idea what screen value was measured for chain 1 V6M ?
Reply: 0.000299

Task item: Any idea what screen value was measured for chain 1 E11W ?
Reply: 0.00397

Task item: Any idea what screen value was measured for chain 1 M3L ?
Reply: 0

Task item: Any idea what screen value was measured for chain 1 A13H ?
Reply: 0.000246

Task item: Any idea what screen value was measured for chain 1 Q7V ?
Reply: 0.00118

Task item: Any idea what screen value was measured for chain 1 A13D ?
Reply: 2.4e-05

Task item: Any idea what screen value was measured for chain 1 R8G ?
Reply: 0.000403

Task item: Any idea what screen value was measured for chain 1 M3R ?
Reply: 0

Task item: Any idea what screen value was measured for chain 1 E14N ?
Reply: 0.000159

Task item: Any idea what screen value was measured for chain 1 M3H ?
Reply: 0.000154

Task item: Any idea what screen value was measured for chain 1 I4G ?
Reply: 4.79e-05

Task item: Any idea what screen value was measured for chain 1 I4K ?
Reply: 0

Task item: Any idea what screen value was measured for chain 1 L10A ?
Reply: 0

Task item: Any idea what screen value was measured for chain 1 N5W ?
Reply: 0.00143

Task item: Any idea what screen value was measured for chain 1 I4L ?
Reply: 0.00108

Task item: Any idea what screen value was measured for chain 1 V6S ?
Reply: 0

Task item: Any idea what screen value was measured for chain 1 L10W ?
Reply: 3.85e-05

Task item: Any idea what screen value was measured for chain 1 L16G ?
Reply: 5.21e-05

Task item: Any idea what screen value was measured for chain 1 M3N ?
Reply: 2.4e-05

Task item: Any idea what screen value was measured for chain 1 L16A ?
Reply: 0.000201

Task item: Any idea what screen value was measured for chain 1 A13K ?
Reply: 0

Task item: Any idea what screen value was measured for chain 1 L9M ?
Reply: 0

Task item: Any idea what screen value was measured for chain 1 F15G ?
Reply: 4.24e-05

Task item: Any idea what screen value was measured for chain 1 A13F ?
Reply: 0.00117

Task item: Any idea what screen value was measured for chain 1 F15S ?
Reply: 4.3e-05
